# assayed-system: Glutamate receptor ionotropic, NMDA 2C (Rattus norvegicus, UniProt P35439+Q00961)
# Sequence (Q00961 whole entry, one chain of several): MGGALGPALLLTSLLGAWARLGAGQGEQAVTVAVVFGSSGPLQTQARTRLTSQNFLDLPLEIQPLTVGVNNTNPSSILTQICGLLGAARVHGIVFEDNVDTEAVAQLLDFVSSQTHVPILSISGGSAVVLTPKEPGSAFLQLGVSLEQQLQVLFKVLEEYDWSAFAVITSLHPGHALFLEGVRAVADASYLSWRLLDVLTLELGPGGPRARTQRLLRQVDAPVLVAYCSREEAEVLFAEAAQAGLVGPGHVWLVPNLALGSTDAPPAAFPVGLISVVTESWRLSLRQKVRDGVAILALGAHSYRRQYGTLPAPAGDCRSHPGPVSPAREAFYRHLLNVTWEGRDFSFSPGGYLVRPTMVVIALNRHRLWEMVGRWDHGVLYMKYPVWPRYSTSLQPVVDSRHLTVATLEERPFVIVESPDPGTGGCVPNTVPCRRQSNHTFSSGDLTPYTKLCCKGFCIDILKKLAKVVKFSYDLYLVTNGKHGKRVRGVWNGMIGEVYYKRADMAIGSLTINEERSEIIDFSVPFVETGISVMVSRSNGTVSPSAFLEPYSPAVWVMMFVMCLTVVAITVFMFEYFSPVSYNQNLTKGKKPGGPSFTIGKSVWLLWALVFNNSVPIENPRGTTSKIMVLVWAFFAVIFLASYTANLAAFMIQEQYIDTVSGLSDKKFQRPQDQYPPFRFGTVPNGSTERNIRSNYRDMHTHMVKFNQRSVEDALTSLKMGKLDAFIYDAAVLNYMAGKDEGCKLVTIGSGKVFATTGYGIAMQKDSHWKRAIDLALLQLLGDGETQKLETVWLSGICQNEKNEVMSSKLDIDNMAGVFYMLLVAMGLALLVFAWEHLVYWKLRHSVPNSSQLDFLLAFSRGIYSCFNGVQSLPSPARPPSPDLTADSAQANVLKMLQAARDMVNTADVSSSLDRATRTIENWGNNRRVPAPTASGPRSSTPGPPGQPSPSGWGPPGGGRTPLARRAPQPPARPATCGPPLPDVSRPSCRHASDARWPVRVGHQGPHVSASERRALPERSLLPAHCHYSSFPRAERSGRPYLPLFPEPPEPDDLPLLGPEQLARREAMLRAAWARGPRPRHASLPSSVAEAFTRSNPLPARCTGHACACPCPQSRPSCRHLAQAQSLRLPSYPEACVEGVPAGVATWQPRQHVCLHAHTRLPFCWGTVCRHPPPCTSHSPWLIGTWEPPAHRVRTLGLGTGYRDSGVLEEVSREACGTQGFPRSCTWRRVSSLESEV
experimental-endpoint: EC50 (µM)
API: value field is a number in µM; no unit string.

stdin: Hi! What's the reported EC50 for Cc1sc2ncn(CC(=O)N3CCCC3)c(=O)c2c1-c1cccc(Br)c1 on Glutamate receptor ionotropic, NMDA 2C (Rattus norvegicus, UniProt P35439+Q00961)?
stdout: 12

----------
# assayed-system: Glutamate receptor ionotropic, NMDA 2B (Homo sapiens, UniProt Q05586+Q13224)
# Sequence (Q13224 whole entry, one chain of several): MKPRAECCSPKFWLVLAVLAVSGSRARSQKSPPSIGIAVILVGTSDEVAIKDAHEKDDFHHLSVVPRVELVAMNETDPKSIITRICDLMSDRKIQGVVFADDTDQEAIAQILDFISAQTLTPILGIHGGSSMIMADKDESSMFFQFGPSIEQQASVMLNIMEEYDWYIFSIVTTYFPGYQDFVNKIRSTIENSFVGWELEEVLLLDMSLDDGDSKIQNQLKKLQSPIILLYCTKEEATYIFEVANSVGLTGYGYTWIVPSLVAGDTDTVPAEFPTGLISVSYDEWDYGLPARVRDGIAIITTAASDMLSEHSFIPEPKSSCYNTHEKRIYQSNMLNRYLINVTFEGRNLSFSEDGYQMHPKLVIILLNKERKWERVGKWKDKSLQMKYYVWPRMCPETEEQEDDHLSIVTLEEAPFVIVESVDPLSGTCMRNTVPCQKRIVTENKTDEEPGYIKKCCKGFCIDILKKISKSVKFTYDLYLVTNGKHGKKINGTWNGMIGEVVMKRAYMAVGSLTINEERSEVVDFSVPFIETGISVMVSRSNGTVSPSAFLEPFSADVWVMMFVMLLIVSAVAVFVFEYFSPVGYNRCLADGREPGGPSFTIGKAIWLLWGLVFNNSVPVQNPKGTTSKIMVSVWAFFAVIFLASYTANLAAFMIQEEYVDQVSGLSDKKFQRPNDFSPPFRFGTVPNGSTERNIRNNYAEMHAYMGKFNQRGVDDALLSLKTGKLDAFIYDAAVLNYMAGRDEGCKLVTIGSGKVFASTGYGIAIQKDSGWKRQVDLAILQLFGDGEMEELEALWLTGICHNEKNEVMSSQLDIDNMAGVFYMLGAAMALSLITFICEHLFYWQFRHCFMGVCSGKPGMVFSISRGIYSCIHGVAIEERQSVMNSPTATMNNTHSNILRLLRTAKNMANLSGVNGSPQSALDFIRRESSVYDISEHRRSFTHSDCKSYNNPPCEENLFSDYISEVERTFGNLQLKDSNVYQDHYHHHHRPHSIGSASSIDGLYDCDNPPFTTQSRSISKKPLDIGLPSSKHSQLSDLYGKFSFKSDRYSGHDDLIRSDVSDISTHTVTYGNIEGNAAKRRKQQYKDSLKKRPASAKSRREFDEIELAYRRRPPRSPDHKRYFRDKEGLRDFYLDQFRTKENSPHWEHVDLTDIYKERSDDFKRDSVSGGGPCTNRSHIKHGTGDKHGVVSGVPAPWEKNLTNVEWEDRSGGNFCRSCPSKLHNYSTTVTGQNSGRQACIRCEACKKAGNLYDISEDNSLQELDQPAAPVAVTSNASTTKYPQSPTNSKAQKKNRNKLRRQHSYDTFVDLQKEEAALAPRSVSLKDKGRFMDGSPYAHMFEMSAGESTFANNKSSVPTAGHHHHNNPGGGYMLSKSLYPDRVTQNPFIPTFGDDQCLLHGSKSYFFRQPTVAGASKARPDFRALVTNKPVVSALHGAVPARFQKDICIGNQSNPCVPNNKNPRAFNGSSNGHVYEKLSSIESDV
# procedure-text: Positive allosteric modulation of GluN2B receptor (unknown origin) expressed in Doxycycline-inducible HEK293 cells by calcium influx assay
experimental-endpoint: EC50 (µM)
API: value field is a number in µM; no unit string.

stdin: Hi! What's the reported EC50 for CCCc1nc2[nH]c(C)c(NS(=O)(=O)c3ccc(C4CCCCC4)cc3)c(=O)n2n1 on Glutamate receptor ionotropic, NMDA 2B (Homo sapiens, UniProt Q05586+Q13224)?
stdout: 3

----------
# assayed-system: Glutamate receptor ionotropic, NMDA 2A (Homo sapiens, UniProt Q05586+Q12879)
# procedure-text: Positive allosteric modulation of GluN2A receptor (unknown origin)
experimental-endpoint: EC50
Answer with the number, then the unit.

stdin: State the recorded EC50 for this entry: C[C@H](CC[C@](C)(O)C(F)(F)F)[C@H]1CC[C@H]2[C@@H]3CC=C4C[C@@](C)(O)CC[C@]4(C)[C@H]3CC[C@]12C [DALZANEMDOR]
stdout: 79 nM

----------
Please provide measured microsomal CLint at 0.5 h, 3 µM for the entries that follow.
# procedure-text: in vitro
# setup-conditions: human, liver microsomes
# Description: Intrinsic clearance in human liver microsomes at 3 uM preincubated for 5 mins followed by NADPH addition measured up to 30 mins by LC-MS/MS analysis
API: value field is a number in µL/min/mg; no unit string.

stdin: State the recorded microsomal CLint at 0.5 h, 3 µM for this entry: Cc1sc2ncn(CC(=O)N3CCCC3)c(=O)c2c1-c1cccc(Br)c1
stdout: 50

stdin: Next up: Cc1sc2ncn(CC(=O)N3CC(C)(F)C3)c(=O)c2c1-c1ccc(F)c(Br)c1
stdout: 29

stdin: Next up: CC1(F)CN(C(=O)Cn2cnc3sc(C#N)c(-c4ccc(F)c(Br)c4)c3c2=O)C1
stdout: 16

stdin: Next up: CC1(F)CN(C(=O)Cn2cnc3scc(-c4ccc(F)c(Br)c4)c3c2=O)C1
stdout: 14

----------
# assayed-system: Glutamate receptor ionotropic, NMDA 2C (Homo sapiens, UniProt Q05586+Q14957)
# Sequence (Q14957 whole entry, one chain of several): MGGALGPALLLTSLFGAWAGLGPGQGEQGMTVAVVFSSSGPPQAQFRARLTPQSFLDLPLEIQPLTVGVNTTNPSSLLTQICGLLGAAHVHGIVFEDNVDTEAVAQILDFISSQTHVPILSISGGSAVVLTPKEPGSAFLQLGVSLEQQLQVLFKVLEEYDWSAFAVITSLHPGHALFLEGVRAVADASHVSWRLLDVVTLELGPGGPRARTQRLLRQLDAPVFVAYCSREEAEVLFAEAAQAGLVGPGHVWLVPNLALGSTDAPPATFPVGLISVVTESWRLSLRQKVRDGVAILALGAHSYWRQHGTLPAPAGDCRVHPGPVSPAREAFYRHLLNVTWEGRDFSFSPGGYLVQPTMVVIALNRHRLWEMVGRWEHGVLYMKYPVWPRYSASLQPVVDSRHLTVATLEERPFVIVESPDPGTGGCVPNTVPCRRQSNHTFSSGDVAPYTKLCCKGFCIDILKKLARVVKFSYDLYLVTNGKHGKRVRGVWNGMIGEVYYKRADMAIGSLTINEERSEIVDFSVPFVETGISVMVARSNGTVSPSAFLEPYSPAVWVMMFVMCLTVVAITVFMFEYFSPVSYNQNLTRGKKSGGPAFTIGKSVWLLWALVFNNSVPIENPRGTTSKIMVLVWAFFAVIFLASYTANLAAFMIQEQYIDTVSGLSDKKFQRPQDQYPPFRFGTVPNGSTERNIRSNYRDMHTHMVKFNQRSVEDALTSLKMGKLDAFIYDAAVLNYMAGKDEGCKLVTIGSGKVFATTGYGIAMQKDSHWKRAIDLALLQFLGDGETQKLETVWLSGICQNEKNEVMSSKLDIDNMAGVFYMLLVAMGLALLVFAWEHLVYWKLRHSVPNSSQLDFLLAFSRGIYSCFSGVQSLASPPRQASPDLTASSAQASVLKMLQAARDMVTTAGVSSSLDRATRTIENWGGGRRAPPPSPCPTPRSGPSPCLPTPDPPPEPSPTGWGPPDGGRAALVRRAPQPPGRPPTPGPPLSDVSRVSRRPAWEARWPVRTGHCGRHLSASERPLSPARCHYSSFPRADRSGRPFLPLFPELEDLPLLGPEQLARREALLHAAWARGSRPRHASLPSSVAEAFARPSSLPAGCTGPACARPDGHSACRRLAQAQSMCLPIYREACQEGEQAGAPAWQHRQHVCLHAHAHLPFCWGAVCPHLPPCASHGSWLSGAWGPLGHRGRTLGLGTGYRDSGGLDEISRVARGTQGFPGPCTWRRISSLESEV
# procedure-text: Positive allosteric modulation of human GluN2C receptor expressed in HEK293 cells by Whole-cell patch-clamp method
experimental-endpoint: pEC50
Scale explanation: pEC50 corresponds to minus log10 of a concentration expressed in moles per litre.

stdin: State the recorded pEC50 for this entry: C[C@@H](O)[C@@H](C(N)=O)N1C[C@@]2(CCCN2C(=O)OC(C)(C)C)C1=O
stdout: 5.01

----------
Assay system Glutamate receptor ionotropic, NMDA 2C (Rattus norvegicus, UniProt P35439+Q00961); read-out recorded as log10 EC50.
Response schema: value (number) is log10 of EC50 in units of µM.

stdin: State the recorded log10 EC50 for this entry: CCc1sc2ncn(CC(=O)N3CC(C)(F)C3)c(=O)c2c1-c1ccc(F)c(Br)c1
stdout: 0.50

stdin: Next up: Cc1sc2ncn(CC(=O)N3CC(C)(F)C3)c(=O)c2c1-c1cccc(Cl)c1F
stdout: 0.72

stdin: Next up: Cc1sc2ncn(CC(=O)N3CC(C)(F)C3)c(=O)c2c1-c1ccc(Cl)c(F)c1
stdout: 0.65

stdin: Next up: CCC1(F)CN(C(=O)Cn2cnc3sc(C)c(-c4cccc(Br)c4)c3c2=O)C1
stdout: 0.38

stdin: Next up: Cc1sc2ncn(CC(=O)N3CC(C)(F)C3)c(=O)c2c1-c1cccc(Cl)c1
stdout: 0.34

stdin: Next up: Cc1sc2ncn(CC(=O)N3CC(C)C3)c(=O)c2c1-c1cccc(Br)c1
stdout: 1.08

stdin: Next up: Cc1sc2ncn(CC(=O)N3CC(C)(F)C3)c(=O)c2c1-c1ccc(F)c(Cl)c1
stdout: 0.08

stdin: Next up: Cc1sc2ncn(CC(=O)N3CC(C)(F)C3)c(=O)c2c1-c1ccc(F)c(C#N)c1
stdout: 0.62

stdin: Next up: Cc1sc2ncn(CC(=O)N3CC(C)(F)C3)c(=O)c2c1-c1cccc(OC(F)(F)F)c1
stdout: 0.41

stdin: Next up: CC1(F)CN(C(=O)Cn2cnc3sc(C#N)c(-c4ccc(F)c(Br)c4)c3c2=O)C1
stdout: -0.03

stdin: Next up: Cc1sc2ncn(CC(=O)N3CC[C@H](F)C3)c(=O)c2c1-c1cccc(Br)c1
stdout: 1.08

stdin: Next up: Cc1sc2ncn(CC(=O)N3CC(C)(F)C3)c(=O)c2c1-c1cc(Cl)ccc1F
stdout: 0.59

stdin: Next up: CCCC1(F)CN(C(=O)Cn2cnc3sc(C)c(-c4cccc(Br)c4)c3c2=O)C1
stdout: 1.11

stdin: Next up: Cc1sc2ncn(CC(=O)N3CC(C)(F)C3)c(=O)c2c1-c1ccc2c(c1)OC(F)(F)O2
stdout: 1.11

stdin: Next up: Cc1sc2ncn(CC(=O)N3CCC(C)(F)C3)c(=O)c2c1-c1cccc(Br)c1 (stereo not given)
stdout: 0.96

stdin: Next up: Cc1sc2ncn(CC(=O)N3CC(F)(C4CC4)C3)c(=O)c2c1-c1cccc(Br)c1
stdout: 0.57

stdin: Next up: Cc1sc2ncn(CC(=O)N3CC(C)(F)C3)c(=O)c2c1-c1ccc(F)c(C(F)(F)F)c1
stdout: 0.20

stdin: Next up: Cc1sc2ncn(CC(=O)N3CCC3)c(=O)c2c1-c1cccc(Br)c1
stdout: 1.30

stdin: Next up: Cc1sc2ncn(CC(=O)N3CCC(C)C3)c(=O)c2c1-c1cccc(Br)c1 (stereo not given)
stdout: 0.82

stdin: Next up: Cc1sc2ncn(CC(=O)N3CC(C)(F)C3)c(=O)c2c1-c1ccc2ccccc2c1
stdout: 0.48
